Below, each entry is listed with its recorded ECL signal.
target: T1, rHuman HGF R/c-MET/Fc Chimera, CF (R&D Systems Cat#358-MT/CF) (human, UniProt P08581 25-932); assay: ECL multispot (MSD), antigen spotted, Fab in solution;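 further: purified Fab incubated 1 h at 20 °C on antigen-spotted wells, bound Fab detected via TAG detection antibody, ECL compared with each well's blank, ratio of 4 or above scored as hit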
T1 construct: Bought recombinant Fc chimera; also called HGF R/Fc; hepatocyte growth factor receptor; Fc part of the bought chimera not given
T1 sequence (P08581 25-932, change not shown): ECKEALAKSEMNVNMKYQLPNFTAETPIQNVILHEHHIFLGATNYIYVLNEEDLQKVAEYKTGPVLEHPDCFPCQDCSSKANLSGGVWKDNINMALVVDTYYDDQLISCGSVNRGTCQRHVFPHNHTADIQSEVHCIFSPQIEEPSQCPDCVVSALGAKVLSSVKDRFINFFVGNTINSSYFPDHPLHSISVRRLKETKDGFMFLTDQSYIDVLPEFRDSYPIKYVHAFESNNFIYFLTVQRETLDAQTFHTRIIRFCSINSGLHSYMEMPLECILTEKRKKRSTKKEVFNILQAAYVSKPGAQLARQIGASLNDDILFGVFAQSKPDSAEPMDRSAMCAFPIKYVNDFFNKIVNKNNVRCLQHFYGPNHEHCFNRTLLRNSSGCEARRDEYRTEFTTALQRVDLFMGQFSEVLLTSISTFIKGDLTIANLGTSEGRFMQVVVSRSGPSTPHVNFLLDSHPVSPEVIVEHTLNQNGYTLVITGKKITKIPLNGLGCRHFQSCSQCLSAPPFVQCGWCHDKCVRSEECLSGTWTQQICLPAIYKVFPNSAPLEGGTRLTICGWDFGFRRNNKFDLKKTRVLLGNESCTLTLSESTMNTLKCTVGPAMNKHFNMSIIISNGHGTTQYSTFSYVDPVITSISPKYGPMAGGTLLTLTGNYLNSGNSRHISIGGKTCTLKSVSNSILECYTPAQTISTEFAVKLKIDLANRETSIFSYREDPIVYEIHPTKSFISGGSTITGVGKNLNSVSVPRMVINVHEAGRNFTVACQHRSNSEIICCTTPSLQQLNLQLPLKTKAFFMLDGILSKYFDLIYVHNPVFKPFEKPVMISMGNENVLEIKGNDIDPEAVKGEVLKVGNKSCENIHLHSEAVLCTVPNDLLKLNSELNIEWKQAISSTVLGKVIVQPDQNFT
Respond with the number and no other words.

// query ECL signal lookup needed for Fab VH1-46_IGHD6-6*01_IGHJ1*01 S102A/S103P/S104F/H111F (APFF) & L6_IGKJ1*01 S28N (Fab, V domains shown, Fab; VH cloned into Plasmid A (CH1, His6 and Flag tags) and VL into Plasmid C (kappa CL); also called APFF / S28N) VH: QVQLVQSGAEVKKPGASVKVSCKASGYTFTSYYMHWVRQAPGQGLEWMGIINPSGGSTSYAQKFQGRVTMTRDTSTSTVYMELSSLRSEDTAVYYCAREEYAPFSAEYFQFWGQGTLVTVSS VL: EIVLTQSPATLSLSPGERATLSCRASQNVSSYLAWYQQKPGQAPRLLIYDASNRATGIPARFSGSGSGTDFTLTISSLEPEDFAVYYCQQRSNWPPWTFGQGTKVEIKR , thanks.
// result 406

// query Reported ECL signal for Fab VH1-46_IGHD6-6*01_IGHJ1*01 S102A/S103P/S104F/H111F (APFF) & L6_IGKJ1*01 S28W (Fab, V domains shown, Fab; VH cloned into Plasmid A (CH1, His6 and Flag tags) and VL into Plasmid C (kappa CL); also called APFF / S28W) VH: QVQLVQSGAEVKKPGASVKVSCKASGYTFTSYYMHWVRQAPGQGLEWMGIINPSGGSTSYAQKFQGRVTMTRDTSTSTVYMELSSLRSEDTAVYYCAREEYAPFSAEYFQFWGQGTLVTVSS VL: EIVLTQSPATLSLSPGERATLSCRASQWVSSYLAWYQQKPGQAPRLLIYDASNRATGIPARFSGSGSGTDFTLTISSLEPEDFAVYYCQQRSNWPPWTFGQGTKVEIKR : what is it?
// result 414

Others:
// query ECL signal value for entry Fab VH1-46_IGHD6-6*01_IGHJ1*01 S102A/S103P/S104F/H111F (APFF) & L6_IGKJ1*01 S30C (Fab, V domains shown, Fab; VH cloned into Plasmid A (CH1, His6 and Flag tags) and VL into Plasmid C (kappa CL); also called APFF / S30C) VH: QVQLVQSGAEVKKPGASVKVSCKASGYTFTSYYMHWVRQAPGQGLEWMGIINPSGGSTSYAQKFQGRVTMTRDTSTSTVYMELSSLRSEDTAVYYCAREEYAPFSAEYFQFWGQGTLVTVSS VL: EIVLTQSPATLSLSPGERATLSCRASQSVCSYLAWYQQKPGQAPRLLIYDASNRATGIPARFSGSGSGTDFTLTISSLEPEDFAVYYCQQRSNWPPWTFGQGTKVEIKR
// result 1230

// query Fill in: ECL signal of Fab VH1-46_IGHD6-6*01_IGHJ1*01 S102A/S103P/S104F/H111F (APFF) & L6_IGKJ1*01 S30D (Fab, V domains shown, Fab; VH cloned into Plasmid A (CH1, His6 and Flag tags) and VL into Plasmid C (kappa CL); also called APFF / S30D) VH: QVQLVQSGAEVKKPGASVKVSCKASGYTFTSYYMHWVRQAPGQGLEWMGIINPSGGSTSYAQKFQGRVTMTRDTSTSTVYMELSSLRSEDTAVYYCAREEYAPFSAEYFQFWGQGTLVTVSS VL: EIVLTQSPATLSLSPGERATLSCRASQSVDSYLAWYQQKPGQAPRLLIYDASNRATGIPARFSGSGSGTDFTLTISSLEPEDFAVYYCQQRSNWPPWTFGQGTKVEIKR is ___
// result 312

// query Give its ECL signal value. Item: Fab VH1-46_IGHD6-6*01_IGHJ1*01 S102A/S103P/S104F/H111F (APFF) & L6_IGKJ1*01 S30L (Fab, V domains shown, Fab; VH cloned into Plasmid A (CH1, His6 and Flag tags) and VL into Plasmid C (kappa CL); also called APFF / S30L) VH: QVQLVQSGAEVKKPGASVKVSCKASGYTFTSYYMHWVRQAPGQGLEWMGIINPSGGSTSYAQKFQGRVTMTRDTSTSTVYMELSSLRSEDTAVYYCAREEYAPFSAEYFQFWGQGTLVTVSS VL: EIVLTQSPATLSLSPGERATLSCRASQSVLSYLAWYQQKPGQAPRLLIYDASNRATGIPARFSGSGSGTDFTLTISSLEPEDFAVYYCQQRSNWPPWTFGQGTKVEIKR
// result 315

// query Could you share which ECL signal value was measured for Fab VH1-46_IGHD6-6*01_IGHJ1*01 S102A/S103P/S104F/H111F (APFF) & L6_IGKJ1*01 S28M (Fab, V domains shown, Fab; VH cloned into Plasmid A (CH1, His6 and Flag tags) and VL into Plasmid C (kappa CL); also called APFF / S28M) VH: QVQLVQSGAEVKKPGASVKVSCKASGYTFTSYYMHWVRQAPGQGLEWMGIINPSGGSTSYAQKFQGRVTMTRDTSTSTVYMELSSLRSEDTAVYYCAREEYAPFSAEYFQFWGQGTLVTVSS VL: EIVLTQSPATLSLSPGERATLSCRASQMVSSYLAWYQQKPGQAPRLLIYDASNRATGIPARFSGSGSGTDFTLTISSLEPEDFAVYYCQQRSNWPPWTFGQGTKVEIKR ?
// result 305

// query Which ECL signal is reported for this binder? Fab VH1-46_IGHD6-6*01_IGHJ1*01 S102A/S103P/S104F/H111F (APFF) & L6_IGKJ1*01 S28E (Fab, V domains shown, Fab; VH cloned into Plasmid A (CH1, His6 and Flag tags) and VL into Plasmid C (kappa CL); also called APFF / S28E) VH: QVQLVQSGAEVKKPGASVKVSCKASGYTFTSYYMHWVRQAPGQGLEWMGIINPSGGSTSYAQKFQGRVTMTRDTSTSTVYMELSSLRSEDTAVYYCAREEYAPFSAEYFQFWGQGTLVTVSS VL: EIVLTQSPATLSLSPGERATLSCRASQEVSSYLAWYQQKPGQAPRLLIYDASNRATGIPARFSGSGSGTDFTLTISSLEPEDFAVYYCQQRSNWPPWTFGQGTKVEIKR
// result 401
